Reference source: patent US6391505B1

# experiment_notes: Reduction potential of organic acceptor compound by cyclic voltammetry
# Type: physicochemical
# measurement_setup: organic acceptor; Table 2
reported_endpoint: Reduction potential [V] (V)

See these solved cases before continuing.
{"columns": ["smiles_string", "reported_endpoint", "units_symbol", "assay_result"],
 "data": [
  ["O=C1C(Oc2ccccc2)=C(Oc2ccccc2)C(=O)c2ccccc21", "Reduction potential [V]", "V", "−0.95"],
  ["CC(C)(C)C1=CC(=C2C=C(C(C)(C)C)C(=O)C(C(C)(C)C)=C2)C=C(C(C)(C)C)C1=O", "Reduction potential [V]", "V", "−0.85"]
]}

[1] O=C1NC(=O)c2ccccc21
[2] O=C1c2ccc3c4c(ccc(c24)C(=O)N1C1CCCCC1)C(=O)N(C1CCCCC1)C3=O
**Query** Lowest Reduction potential [V]? choose 1 or 2 Answer format: the label of the selected item.
**Result** 1
